- system: Prostaglandin E2 receptor EP2 subtype (Homo sapiens) (UniProt P43116)
- Sequence (P43116 whole entry, looked up): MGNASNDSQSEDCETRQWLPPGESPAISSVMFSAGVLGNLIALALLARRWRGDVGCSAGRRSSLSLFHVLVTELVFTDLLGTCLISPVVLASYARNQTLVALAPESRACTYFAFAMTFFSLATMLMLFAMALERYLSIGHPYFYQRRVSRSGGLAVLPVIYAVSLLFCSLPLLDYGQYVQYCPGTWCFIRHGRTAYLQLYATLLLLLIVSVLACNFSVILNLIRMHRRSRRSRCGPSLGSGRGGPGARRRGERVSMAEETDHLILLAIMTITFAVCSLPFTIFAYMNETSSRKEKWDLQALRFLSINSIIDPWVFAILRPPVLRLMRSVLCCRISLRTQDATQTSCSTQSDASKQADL
- method: EP2 receptor modulators, dose response, cell-based, human EP2, PGE2 EC50 shift (AID 1421)
- condition: EP2-expressing cells, PGE2 EC50 shift by compound; measured here: PGE2 EC50 at 6.7 uM compound
outcome_measure: PGE2 EC50 with compound (nM)
# output: bare number, implied unit nM

Some solved entries appear below for comparison.
| molecule | unit | PGE2 EC50 with compound |
| --- | --- | --- |
| O=C(CSc1nnc(COc2ccccc2)n1-c1ccccc1)c1ccccc1 | nM | 1.19 |
| CSc1nnc2c3ccccc3c3ccccc3c2n1 | nM | 1 |
| COc1ccc(OC(=O)c2cccc([N+](=O)[O-])c2)c(C(=O)/C=C/c2cccs2)c1 | nM | 2.52 |
| COc1ccc2c(C)cc(SCC(=O)Nc3ncc(Cl)cc3Cl)nc2c1 | nM | 1.52 |
| O=C(Nc1ccccc1N1CCOCC1)c1ccc2ccccc2n1 | nM | 0.82 |
| O=C(O)c1ccc(C(=O)O)c(C(=O)Nc2ccc3c(c2)Cc2ccccc2-3)c1 | nM | 2.77 |
| O=C(c1ccco1)N1N=C(c2ccc(Br)cc2)CC1(O)C(F)(F)F (stereo unspecified) | nM | 0.84 |
| O=C(O)COc1ccc2occ(C(=O)c3ccccc3)c2c1 | nM | 0.86 |
| Cc1sc(NC(=O)CN2CCOCC2)c(C(=O)c2ccccc2)c1C | nM | 1.18 |
| CC(C)Oc1nc(-c2ccccc2O)nc2ccccc12 | nM | 1.01 |

From here, focus on the item given below.
[Q] Using the record for CCn1c2ccccc2c2cc(/C=N/n3c(C)nnc3C)ccc21 , report its PGE2 EC50 with compound.
[A] 1.15

###

- system: UniProt:P43116
- method: EP2 receptor modulators, dose response, cell-based, human EP2, PGE2 EC50 shift (AID 1421)
- condition: EP2-expressing cells, PGE2 EC50 shift by compound; measured here: PGE2 EC50 at 6.7 uM compound
outcome_measure: PGE2 EC50 with compound (nM)
# output: bare number, implied unit nM

| compound | unit | PGE2 EC50 with compound |
| --- | --- | --- |
| CC(C)CCn1c(Oc2ccc(Cl)cc2)nc2c1c(=O)n(C)c(=O)n2C | nM | 0.72 |
| CCCCC(=O)Nc1sc2c(c1C(=O)OCC)CCC(C=O)=C2Cl | nM | 0.91 |
| CC1CCc2cc(F)cc3c(O)c(C(=O)NCc4ccco4)c(=O)n1c23 (stereo not drawn) | nM | 0.56 |
| COC(=O)c1c(NC(=O)CSc2nnc(-c3cccnc3)n2Cc2ccco2)sc(C)c1C | nM | 0.79 |
| NC(N)=Nc1nc(CSCC/C(N)=N/S(N)(=O)=O)cs1 | nM | 0.78 |

From here, focus on the item given below.
[Q] Using the record for C/C=C(\C)c1nnc(NC(=O)OCC)s1 , report its PGE2 EC50 with compound.
[A] 2.65

###

- system: Prostaglandin E2 receptor EP2 subtype (Homo sapiens) (UniProt P43116)
- method: EP2 receptor modulators, dose response, cell-based, human EP2, PGE2 EC50 shift (AID 1421)
- condition: EP2-expressing cells, PGE2 EC50 shift by compound; measured here: PGE2 EC50 at 6.7 uM compound
outcome_measure: PGE2 EC50 with compound (nM)
# output: bare number, implied unit nM

[Q] Using the record for C/C(=N\N(Cc1ccccc1)c1ccccc1)c1cccnc1 , report its PGE2 EC50 with compound.
[A] 1.38

[Q] Another compound: CCn1c2ccccc2c2cc([N+](=O)[O-])ccc21
[A] 0.83

[Q] Another compound: CC(C)c1ccc(/C=N/Nc2cc(N3CCOCC3)nc(N3CCOCC3)n2)cc1
[A] 0.98

[Q] Another compound: CCOC(=O)C(C)Sc1nc(-c2ccccc2)nc2ccccc12 (stereo not drawn)
[A] 0.92

[Q] Another compound: Cc1ccc2c3c(cccc13)-c1ccccc1C2=O
[A] 0.86

[Q] Another compound: CCC1(C)Cc2ccccc2-c2nc3n(c(=O)c21)CCS3 (stereo not drawn)
[A] 1.37

###

Some molecules, each annotated with its measured PGE2 EC50 with compound.
- system: Prostaglandin E2 receptor EP2 subtype (Homo sapiens)
- method: EP2 receptor modulators, dose response, cell-based, human EP2, PGE2 EC50 shift (AID 1421)
- condition: EP2-expressing cells, PGE2 EC50 shift by compound; measured here: PGE2 EC50 at 6.7 uM compound
# output: bare number, implied unit nM

| record_smiles | PGE2 EC50 with compound / nM |
| --- | --- |
| COc1cc(NC(=S)NC(=O)c2cc(C)cc(C)c2)ccc1NC(=O)c1cccs1 | 2.54 |
| Cc1nc2ccccc2nc1SCC(=O)N1CCC(C)CC1 | 2.77 |
| CC1=C[N+](=O)c2ccccc2[N+]1=O | 0.94 |
| Cc1cccc(NC(=O)CSc2ncnc3c2oc2ccccc23)c1 | 2.85 |
| Cc1ccc(-n2c(Cc3cccc4ccccc34)n[nH]c2=S)c(C)c1 | 0.68 |

From here, focus on the item given below.
[Q] Using the record for CCCCN1C(=O)/C(=C2\SC(N3CCCCC3)=NC2=O)c2ccccc21 , report its PGE2 EC50 with compound.
[A] 1.26

###

- system: Prostaglandin E2 receptor EP2 subtype (Homo sapiens) (UniProt P43116)
- method: EP2 receptor modulators, dose response, cell-based, human EP2, PGE2 EC50 shift (AID 1421)
- condition: EP2-expressing cells, PGE2 EC50 shift by compound; measured here: PGE2 EC50 at 6.7 uM compound
# label = yes if PGE2 EC50 with compound >= 1 nM else no

// below: answered compounds
| compound | category_label |
| --- | --- |
| CCCCCn1c(CN2CCN(c3cc(Cl)ccc3C)CC2)nc2c1c(=O)[nH]c(=O)n2C | yes |
| Cc1ccccc1-c1n[nH]c(=S)n1/N=C/c1ccc(-c2ccccc2Br)o1 | yes |
| C=C(C)Cn1c(C)cc(C)c(S(=O)(=O)c2cccc(C)c2)c1=O | yes |
| CCOP(=O)(OCC)c1nc(-c2ccc(C)cc2)oc1NCc1ccccc1 | no |
| CCOC(=O)CSc1ncnc2c1sc1nc(N3CCOCC3)c3c(c12)CCCC3 | no |

[Q] # bool: PGE2 EC50 with compound of C=CCSc1nc2ccccc2c(=O)n1Cc1ccco1 >= 1 nM
[A] no

[Q] Another compound: CCOC(=O)c1c(-c2ccc(C)cc2)csc1NC(=O)CCN1CC(C)OC(C)C1 (centres undefined)
[A] no

[Q] Another compound: CC(=O)OCC(=O)[C@@]12OC(C)(C)O[C@@H]1C[C@H]1[C@H]3CC=C4C[C@@H](O)CC[C@]4(C)[C@@H]3CC[C@@]12C
[A] no

###

- system: Prostaglandin E2 receptor EP2 subtype (Homo sapiens) (UniProt P43116)
- method: EP2 receptor modulators, dose response, cell-based, human EP2, PGE2 EC50 shift (AID 1421)
- condition: EP2-expressing cells, PGE2 EC50 shift by compound; measured here: PGE2 EC50 at 6.7 uM compound
Some compounds, each annotated with its measured PGE2 EC50 with compound.
# output: bare number, implied unit nM

| compound | unit | PGE2 EC50 with compound |
| --- | --- | --- |
| CCN(CC)c1ccc(/C=C2\C(=O)c3ccc(C(=O)O)cc3C2=O)cc1 | nM | 1.04 |
| CS(=O)(=O)N(Cc1ccccc1)c1ccccc1C(=O)Nc1ccccc1C(=O)NCc1ccco1 | nM | 3.04 |
| Cc1ccc(N/C(C(Cl)=C(Cl)Cl)=C(/Cl)[N+](=O)[O-])c(C)c1 | nM | 1.32 |
| O=C(c1cc(-c2ccccn2)nc2ccc(Br)cc12)N1CCc2ccccc2C1 | nM | 1.06 |
| Cc1c(NC(=S)NC(=O)c2ccc(-c3ccc(Cl)cc3)o2)cccc1C(=O)O | nM | 0.25 |
| CCOP(=O)(OCC)c1nc(-c2ccc(Cl)cc2Cl)oc1N1CCCCC1 | nM | 1.42 |
| CCOC(=O)C1=C(CN2CCc3ccccc32)NC(=O)NC1c1ccc(Cl)cc1 (stereo not given) | nM | 1.21 |
| CCOC(=O)C1=C(C)N(C)C(C)=C(C(=O)OCC)C1c1ccccc1 | nM | 0.97 |
| Cc1ccc(S(=O)(=O)NCC(=O)N(c2ccccc2)C(C(=O)NCc2ccccc2)c2ccco2)cc1 (stereo not given) | nM | 1 |
| C=CCn1c(SCC(N)=O)nc(C)cc1=O | nM | 1.07 |

[Q] Using the record for FC(F)(F)c1nnc(-c2ccccc2)nc1Sc1ccccc1 , report its PGE2 EC50 with compound.
[A] 0.91

[Q] Another compound: Nc1ccc(SC(F)(F)F)cc1C(=O)c1ccccc1
[A] 2.39

[Q] Another compound: O=C(COc1ccccc1)Nc1cc(C(F)(F)F)ccc1N1CCCC1
[A] 0.91

[Q] Another compound: CCOC(=O)c1c(N)sc(-c2ccccc2)c1C
[A] 2.56
